Biological target: Carbonic anhydrase 2 (Homo sapiens)
Experiment: CAII small-molecule binders, profiling panel, biochemical, small-molecule microarray, Alexa647-labelled CAII (AID 1122)
Conditions: CAII-A647 binding fluorescence, higher = more signal
Examples of compounds with documented composite z-score follow.
PARAMETER: composite z-score

COMPOUND_STRUCTURE_STRING	PARAMETER	ENDPOINT_RESULT
COc1ccc([Si](C)(C)[C@H]2[C@H](CC(=O)N(CCO)Cc3ccccc3)O[C@@]3(C(=O)N(Cc4ccc(N5C(=O)c6cccc7cccc5c67)cc4)c4ccccc43)[C@@H]2C)cc1	composite z-score	0.593
Cc1c(NC(=O)/C(C#N)=C/C=C/c2ccc([N+](=O)[O-])cc2)c(=O)n(-c2ccccc2)n1C	composite z-score	0.584
C=CCNC(=O)[C@@H]1[C@H]2C(=O)O[C@H](c3ccccc3)[C@H](c3ccccc3)N2[C@H](c2ccc(OCCO)cc2)[C@@]12C(=O)N(C(=O)OCCOC)c1ccccc12	composite z-score	0.589
O=C(c1ccccc1)N1Cc2ccccc2C[C@@]2(N=C(c3ccc(OCCCO)cc3)O[C@H]2c2ccccc2)C1=O	composite z-score	0.588
